- procedure.details: Cmax in Sprague-Dawley rat at 3 mg/kg, po
- Assay type: ADME, organism-based
- Parameters: dose 3 mg/kg, route oral
- run.parameters: Sprague-Dawley, in vivo
outcome.measure: Cmax (ng/mL)
Enter your answer as a number in ng/mL; do not include the unit.

Data request: Fill blank: measured Cmax of the molecule `COC(=O)N[C@H](C(=O)N1C[C@@H](C)C[C@H]1c1ncc(-c2ccc(-c3ccc(-c4cc5[nH]c([C@@H]6C[C@H](C)CN6C(=O)[C@@H](NC(=O)OC)C(C)C)nc5s4)s3)cc2)[nH]1)C(C)C` is ____.
Data returned: 10

###

- procedure.details: Half life in Sprague-Dawley rat at 3 mg/kg, po
- Format: ADME, organism-based
- Design: dose 3 mg/kg, route oral
- run.parameters: in vivo
outcome.measure: half-life
Please give the number followed by its unit.

Data request: Fill blank: measured half-life of the molecule `COC(=O)N[C@H](C(=O)N1C[C@@H](C)C[C@H]1c1ncc(-c2ccc(-c3ccc(-c4cc5[nH]c([C@@H]6C[C@H](C)CN6C(=O)[C@@H](NC(=O)OC)C(C)C)nc5s4)s3)cc2)[nH]1)C(C)C` is ____.
Data returned: 9.8 h

###

- tested.target: Voltage-gated inwardly rectifying potassium channel KCNH2 (Homo sapiens, UniProt Q12809)
- Sequence (Q12809 whole entry): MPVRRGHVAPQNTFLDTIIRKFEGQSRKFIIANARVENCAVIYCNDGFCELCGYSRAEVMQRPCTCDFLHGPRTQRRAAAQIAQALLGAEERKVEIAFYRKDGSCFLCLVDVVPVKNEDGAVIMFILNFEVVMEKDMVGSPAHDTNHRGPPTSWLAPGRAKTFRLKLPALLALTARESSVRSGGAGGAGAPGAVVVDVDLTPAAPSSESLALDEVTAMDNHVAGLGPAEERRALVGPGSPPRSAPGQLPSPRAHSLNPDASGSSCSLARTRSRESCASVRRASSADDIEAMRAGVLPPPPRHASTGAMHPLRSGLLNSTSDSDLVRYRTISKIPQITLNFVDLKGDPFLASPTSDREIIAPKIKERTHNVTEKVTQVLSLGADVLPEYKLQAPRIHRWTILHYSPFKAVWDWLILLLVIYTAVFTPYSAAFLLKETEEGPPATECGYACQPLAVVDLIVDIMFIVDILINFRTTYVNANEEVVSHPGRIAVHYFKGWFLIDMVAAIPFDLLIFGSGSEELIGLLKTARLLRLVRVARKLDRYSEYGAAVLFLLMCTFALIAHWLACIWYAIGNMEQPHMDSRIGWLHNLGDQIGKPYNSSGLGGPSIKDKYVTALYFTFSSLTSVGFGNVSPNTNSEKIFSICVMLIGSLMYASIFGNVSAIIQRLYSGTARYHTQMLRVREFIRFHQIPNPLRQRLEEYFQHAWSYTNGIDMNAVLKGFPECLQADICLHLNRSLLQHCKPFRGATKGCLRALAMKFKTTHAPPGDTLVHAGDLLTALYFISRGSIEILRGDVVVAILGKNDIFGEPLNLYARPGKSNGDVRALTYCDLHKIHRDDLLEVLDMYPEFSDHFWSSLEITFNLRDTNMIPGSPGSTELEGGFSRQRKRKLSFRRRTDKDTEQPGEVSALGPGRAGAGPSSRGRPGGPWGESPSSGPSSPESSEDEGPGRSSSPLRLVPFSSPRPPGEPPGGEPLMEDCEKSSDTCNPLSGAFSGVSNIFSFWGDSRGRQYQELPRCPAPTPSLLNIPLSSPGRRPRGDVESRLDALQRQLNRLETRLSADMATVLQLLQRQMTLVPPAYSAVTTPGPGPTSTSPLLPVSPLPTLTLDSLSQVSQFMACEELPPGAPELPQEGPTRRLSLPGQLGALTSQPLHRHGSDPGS
- procedure.details: Inhibition of human ERG by Q-patch assay
outcome.measure: IC50 (µM)
Enter your answer as a number in µM; do not include the unit.

Data request: Fill blank: measured IC50 of the compound `COC(=O)N[C@H](C(=O)N1C[C@@H](C)C[C@H]1c1ncc(-c2ccc(-c3ccc(-c4cc5[nH]c([C@@H]6C[C@H](C)CN6C(=O)[C@@H](NC(=O)OC)C(C)C)nc5s4)s3)cc2)[nH]1)C(C)C` is ____.
Data returned: 25.1

###

- procedure.details: Clearance in Sprague-Dawley rat at 3 mg/kg, iv
- Assay type: ADME, organism-based
- Set-up: dose 3 mg/kg, route intravenous
- run.parameters: in vivo
outcome.measure: clearance (mL/min/kg)
Enter your answer as a number in mL/min/kg; do not include the unit.

Data request: Fill blank: measured clearance of the compound `COC(=O)N[C@H](C(=O)N1C[C@@H](C)C[C@H]1c1ncc(-c2ccc(-c3ccc(-c4cc5[nH]c([C@@H]6C[C@H](C)CN6C(=O)[C@@H](NC(=O)OC)C(C)C)nc5s4)s3)cc2)[nH]1)C(C)C` is ____.
Data returned: 6.9

###

Measured CC50 by item
- procedure.details: Cytotoxicity against human HuhET cells by [3H]thymidine incorporation assay
- Type: cell-based

Known results for compounds:
- structure.as.smiles: "COC(=O)N[C@H](C(=O)N1C[C@@H](C)C[C@H]1c1ncc(-c2ccc(-c3ccc(-c4cc5[nH]c([C@@H]6C[C@H](C)CN6C(=O)[C@@H](NC(=O)OC)C(C)C)nc5s4)c(F)c3)cc2)[nH]1)C(C)C"
  result: "> 20 µM"
- structure.as.smiles: "COC(=O)N[C@H](C(=O)N1C[C@@H](C)C[C@H]1c1ncc(-c2ccc(-c3ccc(-c4cc5[nH]c([C@@H]6C[C@H](C)CN6C(=O)[C@@H](NC(=O)OC)C(C)C)nc5s4)c(C)c3)cc2)[nH]1)C(C)C"
  result: "> 20 µM"

Data request: Fill blank: measured CC50 of the compound `COC(=O)N[C@H](C(=O)N1C[C@@H](C)C[C@H]1c1nc2cc(-c3ccc(-c4cc5[nH]c([C@@H]6C[C@H](C)CN6C(=O)[C@@H](NC(=O)OC)C(C)C)nc5s4)cc3)ccc2[nH]1)C(C)C` is ____.
Data returned: > 20 µM

Data request: Similarly, `COC(=O)N[C@H](C(=O)N1C[C@@H](C)C[C@H]1c1nc2sc(-c3ccc(-c4ccc5oc([C@@H]6C[C@H](C)CN6C(=O)[C@@H](NC(=O)OC)C(C)C)nc5c4)cc3)cc2[nH]1)C(C)C` ?
Data returned: > 20 µM
